System: Klebsiella aerogenes
Protocol Summary: Antibacterial activity against Enterobacter aerogenes after 18 to 22 hrs by […]
Format: functional
Quantity Measured: MIC

Consider the reported MIC for these molecules:
Molecule	MIC
Ic1ccc(-c2csc(NN=C3CCCC3)n2)cc1	> 128 µg/mL
CC(C)(O/N=C(\C(=O)N[C@@H]1C(=O)N2C(C(=O)[O-])=C(C[n+]3ccccc3)CS[C@H]12)c1csc(N)n1)C(=O)O [CEFTAZIDIME]	2 µg/mL
C/C(=N\Nc1nc(-c2ccc(I)cc2)cs1)c1ccncc1	> 128 µg/mL

Fill blank: measured MIC of the molecule Ic1ccc(-c2csc(N/N=C/c3cccnc3)n2)cc1 is ____. 16 µg/mL

Fill in the blank: the reported MIC of CC1CCC/C1=N\Nc1nc(-c2ccc(I)cc2)cs1 (stereo unspecified) is ____. > 128 µg/mL

What does the data say about its MIC? Entry: C/C(=N\Nc1nc(-c2ccc(I)cc2)cs1)c1ccc2ccccc2c1 16 µg/mL

# query: MIC of entry Ic1ccc(-c2csc(N/N=C/c3ccc4c(c3)OCO4)n2)cc1 > 128 µg/mL

Which MIC reading was recorded for the molecule CC1CCC(=NNc2nc(-c3ccc(I)cc3)cs2)CC1 (stereo unspecified) ? > 128 µg/mL

Need MIC of CC1CCCC/C1=N\Nc1nc(-c2ccc(I)cc2)cs1 (stereo unspecified) , thanks. > 128 µg/mL

Any idea what its MIC is? The molecule is Ic1ccc(-c2csc(N/N=C/c3ccncc3)n2)cc1 > 128 µg/mL

For the molecule Ic1ccc(-c2csc(N/N=C/c3cccc4ccccc34)n2)cc1 , what MIC is on record? 16 µg/mL
